Exercise: state measured ELISA luminescence signal at 10 nmol/L peptide, relative to SEQ ID NO: 47 (=1) for each of the binders provided.
Target Desc: T1, Recombinant Human FGFR2 alpha (IIIc) Fc Chimera Protein, CF (R&D systems, 712-FR-050) (human, UniProt P21802 22-377)
T1 construct: bought; not shown: Fc part of the chimera
T1 sequence (P21802 22-377, change not shown): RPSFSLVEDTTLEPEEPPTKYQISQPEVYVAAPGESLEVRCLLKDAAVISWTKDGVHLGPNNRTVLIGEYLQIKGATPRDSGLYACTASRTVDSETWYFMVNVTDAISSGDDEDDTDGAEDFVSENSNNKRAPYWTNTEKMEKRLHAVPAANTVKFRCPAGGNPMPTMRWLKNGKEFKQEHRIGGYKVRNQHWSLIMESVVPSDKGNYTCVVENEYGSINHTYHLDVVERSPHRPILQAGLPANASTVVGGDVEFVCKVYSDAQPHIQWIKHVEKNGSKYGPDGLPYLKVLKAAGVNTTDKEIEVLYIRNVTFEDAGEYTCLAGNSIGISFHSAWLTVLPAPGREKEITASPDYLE
Experiment Description: ELISA on plate-bound FGFR2-Fc
Bridge positions count the residues as written; N and C are the ends. Ends that are not written are not given here. COCH2 = acetyl group that carries the bridge

[[record]]
binder = "CHENYLDPEQYQYFHYFK(COCH2) (thioether 1-18 (inferred)) [cyclic peptide SEQ ID NO: 431]"
value_observed = "0.1 to 0.5 ratio"


Below are 6 binders. Give each one its ELISA luminescence signal at 10 nmol/L peptide, relative to SEQ ID NO: 47 (=1).
1. YCEENYLDPEQYAYFIYFK(COCH2)Y (thioether 2-19) [cyclic peptide SEQ ID NO: 331]
2. YCEENYLDPEQYQYFNYFK(COCH2)Y (thioether 2-19 (inferred)) [cyclic peptide SEQ ID NO: 283]
3. YCEENQLDPEQYQYFIYFK(COCH2)Y (thioether 2-19 (inferred)) [cyclic peptide SEQ ID NO: 190]
4. YCEENYKDPEQYQYFIYFK(COCH2)Y (thioether 2-19; not fully specified; printed as Y-(C)-EENYKDPEQYQYFIYF-(K(acetyl))-Y) [cyclic peptide SEQ ID NO: 339]
5. PCPQNFINPVQWRYFQHYK(COCH2)N (thioether 2-19 (inferred)) [cyclic peptide SEQ ID NO: 72]
6. YCEENYLDPEQYQYFRYFK(COCH2)Y (thioether 2-19 (inferred)) [cyclic peptide SEQ ID NO: 289]

Ans:
1: ≥ 0.7 ratio; 2: ≥ 0.7 ratio; 3: 0.1 to 0.5 ratio; 4: ≥ 0.7 ratio; 5: ≥ 0.7 ratio; 6: ≥ 0.7 ratio

Below are 4 binders. Give each one its ELISA luminescence signal at 10 nmol/L peptide, relative to SEQ ID NO: 47 (=1).
1. ACGQNFYHPVQFHYFIAYK(COCH2)Q (thioether 2-19 (inferred)) [cyclic peptide SEQ ID NO: 50]
2. QCPQNFINPVQWRYFQHWK(COCH2)N (thioether 2-19) [cyclic peptide SEQ ID NO: 93]
3. RCINYWSGQQFYFFQQYK(COCH2)F (thioether 2-18) [cyclic peptide SEQ ID NO: 113]
4. YCEENYLDPEQIQYFIYFK(COCH2)Y (thioether 2-19 (inferred)) [cyclic peptide SEQ ID NO: 253]

Ans:
1: ≥ 0.7 ratio; 2: ≥ 0.7 ratio; 3: 0.1 to 0.5 ratio; 4: 0.1 to 0.5 ratio
